Each recorded value in this set is attributed to patent US20250320312A1.

SYSTEM_TESTED: T1, Peptide 8: Biotin-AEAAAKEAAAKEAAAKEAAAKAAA-Tyr-acid (N-terminal biotin; C-terminal acid)
T1 construct: control peptide without PC
T1 peptide: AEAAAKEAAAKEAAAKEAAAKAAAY
PROTOCOL_NOTES: scFv ELISA
Experimental: For ELISA analysis of scFv binding, 96-well polystyrene plates were coated with Peptide 1, 4, 5, 8 or 100 μL BSA (10 μg/mL) in PBS at 4° C. overnight. […] All plates were washed three times with PBS-Tween before 40 μL aliquots of PPE were added to assay plates along with 50 μL 10% BSA, and plates were incubated for 1 hour at room temperature. […] The amount of scFv bound to each well was quantitated from absorbance measurement at 450 nm (OD450).
MEASUREMENT_KIND: OD450

Examples with their reported OD450 follow.
## Input Hello, please tell me recorded OD450 for this one: PcOxP_DB03_E01 (scFv, V domains shown, scFv in periplasmic extract) VH: EVQLLESGGGLVQPGGSLRLSCAASGFTFSDYYMEWVRQAPGKGLEWVAASRNKANDYTVEYADSVKGRFTISRDNSKNTLYLQMNSLRAEDTAVYYCARDYYGSSYWYFDVWGQGTLVTVSS VL: DIQMTQSPSSLSASVGDRVTITCTASESLYSSKHKVHYLAWYQQKPGKAPKLLIYGTSNRYIGVPSRFSGSGSGTDFTLTISSLQPEDFATYYCAQFYEYPLTFGGGTKVEIK
## Output 0.06 OD450

## Input Hello, please tell me recorded OD450 for this one: PcOxP_DB01_B01 (scFv, V domains shown, scFv in periplasmic extract) VH: EVQLLESGGGLVQPGGSLRLSCAASGFTFSDQYIEWVRQAPGKGLEWVAASRNKANDYTTEYADSVKGRFTISRDNSKNTLYLQMNSLRAEDTAVYYCARDYLGSSYWYFDVWGQGTLVTVSS VL: DIQMTQSPSSLSASVGDRVTITCTASESLYSSKHKVHYLAWYQQKPGKAPKLLIYGASHRYIGVPSRFSGSGSGTDFTLTISSLQPEDFATYYCAQFYAYPLTFGGGTKVEIK
## Output 0.05 OD450

New cases:
## Input Hello, please tell me recorded OD450 for this one: PcOxP_DB03_C03 (scFv, V domains shown, scFv in periplasmic extract) VH: EVQLLESGGGLVQPGGSLRLSCAASGFTFSDFYMEWVRQAPGKGLEWVAASRNKYNDYTTEYADSVKGRFTISRDNSKNTLYLQMNSLRAEDTAVYYCARDYYGSSYWYFDVWGQGTLVTVSS VL: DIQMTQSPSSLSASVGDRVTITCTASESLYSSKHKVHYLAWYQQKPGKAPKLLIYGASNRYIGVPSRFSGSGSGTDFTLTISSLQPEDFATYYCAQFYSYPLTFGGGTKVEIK
## Output 0.05 OD450
